# Test system: A549/ATCC NSCLC
# PROTOCOL NOTES: NCI-60 one-dose screen, 48 h (100 = growth as untreated, 0 = no growth, -100 = all killed)
# TEST CONDITIONS: 10 µM unless noted
The panel holds about 83,000 compounds, 20% with a hit somewhere; the sample as a whole holds those more often.
API: label(entry) gives true if the entry's growth is strictly smaller than 80%; on equality or larger values it gives false.

Here are 5 compounds together with their reported answers.
CCOC(=O)c1cn2ncnc(Oc3ccc(NC(=O)NC4CC4)c(F)c3)c2c1C ... false
COc1ccc(-c2ccc(-c3ccc(C(=N)N)cn3)s2)cc1 ... true
C=C(C)[C@@H]1CC[C@]2(CO)CC[C@]3(C)[C@H](CC[C@@H]4[C@@]5(C)CCC(NCCc6ccc(O)cc6)C(C)(C)[C@@H]5CC[C@]43C)[C@@H]12 (stereo not given in full) ... true
CCCCCCCCn1ccc2cc(NC(=O)Cn3cc(CN4CCOCC4)nn3)ccc21 ... false
CCCCN1C(=O)/C(=c2\sc3n(c2=O)NC2C(N=3)N(CC)C(=O)N2CC)c2ccccc21 (stereo not given) ... true

Quick check: growth of COc1cc(/C=C\c2cc(/C=C\c3ccc(O)c(OC)c3)n(C(=O)CNc3ccc(Cl)cc3)n2)ccc1O under 80%?
true

# strict comparison: is reported growth < 80%? input = COc1cccc(/C=C/C(=O)c2cc3c(N)c(C(=O)Nc4cccc(Cl)c4C)sc3nc2C)c1
true

I'd appreciate it if you could check whether COc1ccccc1NC(=O)c1ccc(/C=C/C(=O)c2nccn2C)cc1 has growth smaller than 80%.
true

Here's an entry: CCn1cc(C(=O)NN=C2CCCCCC2)c(=O)c2ccc(C)nc21 . Is its growth below 80%?
false

Below 80% on growth? Entry O=C(CCCCCCN1CC(=O)N2[C@@H](c3ccc(Cl)cc3)c3[nH]c4ccccc4c3C[C@H]2C1=O)NO
false
